molecular target: anti-cotinine antibody (SEQ ID NO: 11/12, rabbit variable region with human IgG1 Fc DE mutation); assay: SPR binding of anti-cotinine antibody to ARM compounds, Biacore T200, 37° C. (Example 202); conditions: SPR Biacore T200, 37° C., pH 7.4, antibody SEQ ID NO: 11/12 captured on protein A; Kd in molar
assay readout: pKd of Antibody for ARM Compound of Formula (I)
I'd appreciate a reply containing only the number, no unit.

What pKd of Antibody for ARM Compound of Formula (I) value was documented for this molecule, CC(C)N(C)[C@@H]1CC[C@H](N2CC[C@H](Nc3ncnc4ccc(C(F)(F)F)cc34)C2=O)[C@H](NC(=O)[C@H]2CC[C@H](NC(=O)CCOCCOCCOCCNC(=O)[C@H]3CC(=O)N(C)[C@@H]3c3cccnc3)CC2)C1 [Example 30] ?
9.3155

What pKd of Antibody for ARM Compound of Formula (I) value was documented for this molecule, CC(C)N(C)[C@@H]1CC[C@H](N2CC[C@H](Nc3ncnc4ccc(C(F)(F)F)cc34)C2=O)[C@H](NC(=O)[C@H]2CC[C@@H](NC(=O)CCCOC[C@H]3CC[C@@H](COCCNC(=O)[C@H]4CC(=O)N(C)[C@@H]4c4cccnc4)CC3)CC2)C1 [Example 61] ?
9.558

----------
System: endogenous target monocytes in human PBMC
Experiment: PBMC ex vivo monocyte depletion flow cytometry assay (Example 200)
Type: cell-based
Details: with anti-cotinine antibody (SEQ ID NO: 11/12), 18-24 hours, EC50 in molar, read-out: Ex Vivo Depletion Assay pEC50 (converted)
Experimental: A human PBMC (peripheral blood mononuclear cells) monocyte depletion flow cytometry assay was developed to screen compounds in a 384-well plate format. This assay incorporated endogenous natural killer cells to deplete endogenous target monocytes. To screen compounds in the human PBMC monocyte depletion flow cytometry assay, 11-point dose-response curves were made from 1 mM stocks in neat DMSO by serially diluting an ARM compound of Formula (I) four-fold into a 384-well plate row-wise. […]
Structures can show the parent of a compound that is named as a salt.
assay readout: EC50 (nM)
Give just the number in nM; leave the unit off.

What EC50 value was documented for this compound, "CC(C)N(C)[C@@H]1CC[C@H](N2CC[C@H](Nc3ncnc4ccc(C(F)(F)F)cc34)C2=O)[C@H](NC(=O)c2cc(OCCOCCOCCOCCNC(=O)[C@H]3CC(=O)N(C)[C@@H]3c3cccnc3)ccn2)C1" ?
25.1

What EC50 value was documented for this compound, "CC(C)N(C)[C@@H]1CC[C@H](N2CC[C@H](Nc3ncnc4ccc(C(F)(F)F)cc34)C2=O)[C@H](NC(=O)CCOCCOCCOCCOCCNC(=O)[C@H]2CC(=O)N(C)[C@@H]2c2cccnc2)C1" ?
2510

What EC50 value was documented for this compound, "CC(C)N(C)[C@@H]1CC[C@H](N2CC[C@H](Nc3ncnc4ccc(C(F)(F)F)cc34)C2=O)[C@H](NC(=O)c2ccc(NCCOCCOCCOCCOCCNC(=O)[C@H]3CC(=O)N(C)[C@@H]3c3cccnc3)nn2)C1" ?
15.8

What EC50 value was documented for this compound, CC(C)N(C)[C@@H]1CC[C@H](N2CC[C@H](Nc3ncnc4ccc(C(F)(F)F)cc34)C2=O)[C@H](NC(=O)CCCN2CCC3(CCC(C(=O)NCCNC(=O)[C@H]4CC(=O)N(C)[C@@H]4c4cccnc4)CC3)CC2)C1 [Example 183, Formic acid salt] ?
0.251

----------
target: human alpha1 nicotinic acetylcholine (nACh) receptor (Homo sapiens, UniProt P02708); test: Nicotinic acetylcholine receptor antagonism assay, IONFlux automated patch clamp (Example 203); conditions: antagonism of ACh-stimulated human alpha1 nAChR current, patch clamp
Sequence (P02708 21-457): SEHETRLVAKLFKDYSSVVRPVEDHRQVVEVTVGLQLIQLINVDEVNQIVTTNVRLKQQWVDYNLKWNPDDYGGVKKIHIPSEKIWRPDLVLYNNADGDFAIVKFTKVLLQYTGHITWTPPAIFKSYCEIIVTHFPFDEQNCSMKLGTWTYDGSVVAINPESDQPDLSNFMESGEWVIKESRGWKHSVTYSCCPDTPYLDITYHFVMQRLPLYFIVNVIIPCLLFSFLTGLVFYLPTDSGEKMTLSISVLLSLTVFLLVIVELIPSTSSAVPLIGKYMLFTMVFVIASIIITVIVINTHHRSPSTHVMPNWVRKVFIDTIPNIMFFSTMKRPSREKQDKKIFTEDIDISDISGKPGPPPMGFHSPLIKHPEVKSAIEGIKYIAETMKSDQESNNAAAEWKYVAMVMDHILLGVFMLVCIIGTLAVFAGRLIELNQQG
Sequence (P11230 24-501 partner): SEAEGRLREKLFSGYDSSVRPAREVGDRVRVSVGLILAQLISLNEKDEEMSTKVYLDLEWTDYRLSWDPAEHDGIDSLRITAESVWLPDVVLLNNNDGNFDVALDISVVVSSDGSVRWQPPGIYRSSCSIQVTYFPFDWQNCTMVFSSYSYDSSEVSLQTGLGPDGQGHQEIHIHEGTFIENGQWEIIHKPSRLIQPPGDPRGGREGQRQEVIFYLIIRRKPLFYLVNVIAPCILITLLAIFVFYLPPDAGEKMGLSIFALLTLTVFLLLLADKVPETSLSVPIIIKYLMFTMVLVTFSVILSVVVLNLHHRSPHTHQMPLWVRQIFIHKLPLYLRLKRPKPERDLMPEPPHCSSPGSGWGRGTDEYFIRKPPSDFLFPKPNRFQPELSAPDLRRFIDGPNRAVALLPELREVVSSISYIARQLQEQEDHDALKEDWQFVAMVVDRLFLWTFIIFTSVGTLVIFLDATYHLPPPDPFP
Sequence (Q07001 22-517 partner): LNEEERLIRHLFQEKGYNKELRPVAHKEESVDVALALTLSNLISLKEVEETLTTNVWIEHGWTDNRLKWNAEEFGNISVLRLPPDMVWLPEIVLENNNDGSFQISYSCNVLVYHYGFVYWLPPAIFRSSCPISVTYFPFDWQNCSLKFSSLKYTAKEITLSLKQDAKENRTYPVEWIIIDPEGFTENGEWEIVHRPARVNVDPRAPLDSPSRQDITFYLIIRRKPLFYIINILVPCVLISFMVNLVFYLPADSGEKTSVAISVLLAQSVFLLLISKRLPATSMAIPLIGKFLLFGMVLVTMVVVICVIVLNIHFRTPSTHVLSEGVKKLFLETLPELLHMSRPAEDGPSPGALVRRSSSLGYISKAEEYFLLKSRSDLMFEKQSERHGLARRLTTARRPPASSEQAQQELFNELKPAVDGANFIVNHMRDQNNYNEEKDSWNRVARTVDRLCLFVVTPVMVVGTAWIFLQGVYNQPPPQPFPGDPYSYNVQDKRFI
Provide the reported pIC50 of each item.
# log scale: pIC50 equals minus log10 of the concentration in mol/L

What pIC50 value was documented for this compound, CC(C)N(C)[C@@H]1CC[C@H](N2CC[C@H](Nc3ncnc4ccc(C(F)(F)F)cc34)C2=O)[C@H](NC(=O)CCOCCNC(=O)CCCO[C@H]2CC[C@H](OCCNC(=O)[C@H]3CC(=O)N(C)[C@@H]3c3cccnc3)CC2)C1 [Example 7] ?
4.86

What pIC50 value was documented for this compound, CCN1C(=O)C[C@H](C(=O)NCCOCCOCCOCCC(=O)N[C@H]2CC[C@@H](C(=O)N[C@@H]3C[C@H](NC(C)(C)C)CC[C@@H]3N3CC[C@H](Nc4ncnc5ccc(C(F)(F)F)cc45)C3=O)CC2)[C@H]1c1cccnc1 [Example 35] ?
4.05

----------
Provide the reported Emax at 100 µM of each item.
molecular target: human alpha1 nicotinic acetylcholine (nACh) receptor (Homo sapiens); test: Nicotinic acetylcholine receptor antagonism assay, IONFlux automated patch clamp (Example 203); format: cell-based; conditions: maximum percentage antagonism at maximum concentration tested 100 μM; read-out: Maximum Response
Give just the number in %; leave the unit off.

What Emax at 100 µM value was documented for this molecule, CC(C)N(C)[C@@H]1CC[C@H](N2CC[C@H](Nc3ncnc4ccc(C(F)(F)F)cc34)C2=O)[C@H](NC(=O)[C@H]2CC[C@@H](NC(=O)COCCNC(=O)COCCNC(=O)[C@H]3CC(=O)N(C)[C@@H]3c3cccnc3)CC2)C1 [Example 99] ?
71.1

What Emax at 100 µM value was documented for this molecule, CC(C)N(C)[C@@H]1CC[C@H](N2CC[C@H](Nc3ncnc4ccc(C(F)(F)F)cc34)C2=O)[C@H](NC(=O)CCOCCC(=O)N[C@H]2C[C@@H](C(=O)NCCOCCNC(=O)[C@H]3CC(=O)N(C)[C@@H]3c3cccnc3)C2)C1 [Example 186] ?
55.2

What Emax at 100 µM value was documented for this molecule, CC(C)N(C)[C@@H]1CC[C@H](N2CC[C@H](Nc3ncnc4ccc(C(F)(F)F)cc34)C2=O)[C@H](NC(=O)[C@H]2CC[C@H](NC(=O)CCCC(=O)NCCCOCCCNC(=O)[C@H]3CC(=O)N(C)[C@@H]3c3cccnc3)CC2)C1 [Example 19] ?
34.2

What Emax at 100 µM value was documented for this molecule, CC(C)N(C)[C@@H]1CC[C@H](N2CC[C@H](Nc3ncnc4ccc(C(F)(F)F)cc34)C2=O)[C@H](NC(=O)[C@H]2CC[C@@H](NC(=O)CCOCCOCCOCCNC(=O)[C@H]3CC(=O)N(C)[C@@H]3c3cccnc3)CC2)C1 [Example 28] ?
69.9

What Emax at 100 µM value was documented for this molecule, CC(C)N(C)[C@@H]1CC[C@H](N2CC[C@H](Nc3ncnc4ccc(C(F)(F)F)cc34)C2=O)[C@H](NC(=O)CCOCCNC(=O)COCCNC(=O)COCCNC(=O)[C@H]2CC(=O)N(C)[C@@H]2c2cccnc2)C1 [Example 102] ?
61.3

What Emax at 100 µM value was documented for this molecule, CC(C)N(C)[C@@H]1CC[C@H](N2CC[C@H](Nc3ncnc4ccc(C(F)(F)F)cc34)C2=O)[C@H](NC(=O)[C@H]2CC[C@@H](NC(=O)CCOCCOCCNC(=O)CCNC(=O)[C@H]3CC(=O)N(C)[C@@H]3c3cccnc3)CC2)C1 [Example 16] ?
47.8

What Emax at 100 µM value was documented for this molecule, CCN1C(=O)C[C@H](C(=O)NCCOCCOCCOCCC(=O)N[C@H]2CC[C@@H](C(=O)N[C@@H]3C[C@H](N(C)C(C)C)CC[C@@H]3N3CC[C@H](Nc4ncnc5ccc(C(F)(F)F)cc45)C3=O)CC2)[C@H]1c1cccnc1 [Example 34] ?
79.2

What Emax at 100 µM value was documented for this molecule, CC(C)N(C)[C@@H]1CC[C@H](N2CC[C@H](Nc3ncnc4ccc(C(F)(F)F)cc34)C2=O)[C@H](NC(=O)CCOCCOCCNC(=O)CCOCCOCCNC(=O)[C@H]2CC(=O)N(C)[C@@H]2c2cccnc2)C1 [Example 76] ?
67.7

----------
target: CHOK1 cells engineered to overexpress human CCR2 (Homo sapiens, UniProt P41597); construct: expressed in transfected cells; host or cells: CHOK1; assay: Antibody dependent cellular cytotoxicity (ADCC) reporter assay (Example 199); assay type: cell-based; settings: with anti-cotinine antibody (SEQ ID NO: 11/12); Jurkat FcγRIIIa NFAT-luciferase reporter cells; 12-18 hours; EC50 in molar; average or individual runs; read-out: ADCC Reporter Assay pEC50 (converted)
assay readout: EC50 (nM)
Give just the number in nM; leave the unit off.

What EC50 value was documented for this compound, "CC(C)N(C)[C@@H]1CC[C@H](N2CC[C@H](Nc3ncnc4ccc(C(F)(F)F)cc34)C2=O)[C@H](N[C@H]2CC[C@@H](C(=O)NCCOCCOCCOCCOCCNC(=O)[C@H]3CC(=O)N(C)[C@@H]3c3cccnc3)CC2)C1" ?
5.01

What EC50 value was documented for this compound, "CC(C)N(C)[C@@H]1CC[C@H](N2CC[C@H](Nc3ncnc4ccc(C(F)(F)F)cc34)C2=O)[C@H](NC(=O)[C@H]2CC[C@@H](N3CCN(S(=O)(=O)C4CCN(C(=O)[C@H](C)NC(=O)[C@H]5CC(=O)N(C)[C@@H]5c5cccnc5)CC4)CC3)CC2)C1" ?
10

What EC50 value was documented for this compound, "CN1C(=O)C[C@H](C(=O)NCCOCCNC(=O)[C@H]2C[C@H](NC(=O)CCOCCC(=O)N[C@@H]3C[C@H](NC(C)(C)C)CC[C@@H]3N3CC[C@H](Nc4ncnc5ccc(C(F)(F)F)cc45)C3=O)C2)[C@H]1c1cccnc1" ?
0.501

What EC50 value was documented for this compound, "CC(C)N(C)[C@@H]1CC[C@H](N2CC[C@H](Nc3ncnc4ccc(C(F)(F)F)cc34)C2=O)[C@H](NC(=O)[C@H]2CC[C@H](N3CCN(S(=O)(=O)C4CCN(C(=O)[C@H](C)NC(=O)[C@H]5CC(=O)N(C)[C@@H]5c5cccnc5)CC4)CC3)CC2)C1" ?
0.794

Reference for the values: patent US12521393B2
